The reported measurements were obtained from ChEMBL document CHEMBL4392855.

Test: Photo-stability in 50 mM pH 7.4 phosphate buffer assessed as compound degradation at 30 uM under UV-light irradiation by HPLC analysis
Assay type: physicochemical
Settings: pH 7.4, 30 µM
measurement.type: Stability

> print(dat)
                                   compound  reported
1  C[C@@H]1c2nnc(-c3ccc4ccccc4n3)n2CCN1C(=O)c1ccc(F)cc1    Stable
2  CC1c2nnn(-c3ccc4ccccc4n3)c2CCN1C(=O)c1ccc(F)cc1 (centres undefined)    Stable
3  CC1c2onc(-c3ccc4ccccc4n3)c2CCN1C(=O)c1ccc(F)cc1 (centres undefined)    Stable

---

Assay: Stability in pH 10 carbonate buffer assessed as compound degradation at 30 uM by HPLC analysis
Assay type: physicochemical
Conditions: pH 10, 30 µM
measurement.type: Stability

> print(dat)
                                   compound  measurement.type  reported
1  CC1c2noc(-c3ccc4ccccc4n3)c2CCN1C(=O)c1ccc(F)cc1 (stereo unspecified)         Stability    Stable
2  C[C@H]1c2noc(-c3ccc4ccccc4n3)c2CCN1C(=O)c1ccc(F)cc1         Stability    Stable
3  CC1c2onc(-c3ccc4ccccc4n3)c2CCN1C(=O)c1ccc(F)cc1 (stereo unspecified)         Stability    Stable
4  CC1c2nnn(-c3ccc4ccccc4n3)c2CCN1C(=O)c1ccc(F)cc1 (stereo unspecified)         Stability    Stable
5  C[C@@H]1c2nnc(-c3ccc4ccccc4n3)n2CCN1C(=O)c1ccc(F)cc1         Stability    Stable

# next compound below
Q: Looking for the measured Stability of `C[C@@H]1c2noc(-c3ccc4ccccc4n3)c2CCN1C(=O)c1ccc(F)cc1` , can you help?
A: Stable
